Tested on: TNBC cell line MDA-MB-231
Test: CCK-8 assay, antiproliferative activity against MDA-MB-231
Conditions: Homo sapiens, MDA-MB-231, 72 h, read-out: IC50 MDA-MB-231
Please assign Not satisfied whenever IC50 is at or above 10 µM, and Satisfied whenever it is below.

Report whether reported IC50 is lower than 10 µM (strictly) for COc1ccc2occ(COC(=O)[C@H](Cc3ccc(N(CCCl)CCCl)cc3)NC=O)c(=O)c2c1 [Compound 18b]
Not satisfied

Report whether reported IC50 is lower than 10 µM (strictly) for Cc1ccc2occ(COC(=O)[C@H](Cc3ccc(N(CCCl)CCCl)cc3)NC=O)c(=O)c2c1 [Compound 17b]
Not satisfied

Report whether reported IC50 is lower than 10 µM (strictly) for Cc1ccc2occ(CO)c(=O)c2c1 [Compound 15]
Not satisfied

Report whether reported IC50 is lower than 10 µM (strictly) for COc1ccc2occ(CN)c(=O)c2c1 [Compound 20]
Not satisfied

Report whether reported IC50 is lower than 10 µM (strictly) for COc1ccc2occ(CO)c(=O)c2c1 [Compound 16]
Not satisfied

Report whether reported IC50 is lower than 10 µM (strictly) for Cc1ccc2occ(COC(=O)c3ccc(N(CCCl)CCCl)cc3)c(=O)c2c1 [Compound 17a]
Satisfied

Report whether reported IC50 is lower than 10 µM (strictly) for Cc1ccc2occ(CN)c(=O)c2c1 [Compound 19]
Not satisfied

Report whether reported IC50 is lower than 10 µM (strictly) for COc1ccc2occ(CNC(=O)[C@H](Cc3ccc(N(CCCl)CCCl)cc3)NC=O)c(=O)c2c1 [Compound 22b]
Satisfied
